So I've got a bunch of compounds here, and I need their log10 of solubility at 24 h values.
Experiment: Aqueous solubility of the compound in H2O after 24 hrs incubation at 30 degC by LCMS analysis
Type: physicochemical
Settings: water
Heads up: the numbers are on a log10 scale; they represent solubility at 24 h in µg/mL.

Q: Can you look up the measured log10 of solubility at 24 h of "COc1ccc2cc([C@H](C)C(=O)OCCSCC3(C)COC3)ccc2c1" for me?
Ans: 1.11

Q: Same again, this time with "COc1ccc2cc([C@H](C)C(=O)OCCS(=O)(=O)CC3(C)COC3)ccc2c1"
Ans: 1.80

Q: Now try CC(C)C[C@@H](/C=C/CC(=O)NC1CC(C)(C)N([O])C(C)(C)C1)NC(=O)OCC[S+]([O-])CC1(C)COC1 (mixture of isomers) .
Ans: 4.38

Q: Ok, now C[C@H](CCC(=O)OCC[S+]([O-])CC1(C)COC1)[C@H]1CC[C@H]2[C@@H]3CC[C@@H]4C[C@H](O)CC[C@]4(C)[C@H]3CC[C@]12C (mixture of isomers)
Ans: 2.41

Q: Again, but for CC1(C[S+]([O-])CCOC(=O)N2CCN(c3cc4c(cc3F)c(=O)c(C(=O)O)cn4C3CC3)CC2)COC1 (centres undefined)
Ans: 2.28

Q: Queued: "CCOC(=O)Nc1ccc2sc3c(c2c1)SCCNC3=O"
Ans: 1.83

Q: Next entry: "CC(C)C[C@@H](/C=C/CC(=O)NC1CC(C)(C)N([O])C(C)(C)C1)NC(=O)OC(C)(C)C"
Ans: 2.40

Q: Do the same for CC1(C[S+]([O-])CCOC(=O)Nc2ccc3sc4c(c3c2)SCCNC4=O)COC1 (centres undefined) please
Ans: 2.64

Q: Another compound: COc1ccc2cc([C@H](C)C(=O)OCC[S+](C)[O-])ccc2c1 (some centres undefined)
Ans: 2.43
